# TEST NAME: Half life in rat
# Assay type: ADME, organism-based
# STATED CONDITIONS: in vivo
READOUT: half-life
In your response, the unit should come after the numeric value.

I would be grateful if you could share the reported half-life for O=c1[nH]c([C@@H]2CCCN2)nc2c1oc1ccc(Cl)cc12 . 2.32 h

---

Each item that follows carries a reported pIC50.
# TESTED TARGET: Cell division cycle 7-related protein kinase (Homo sapiens)
# TEST NAME: Inhibition of CDC7 in human MDA-MB-231T cells assessed as inhibition of MCM2 phosphorylation at Ser53 after 4 hrs
# Assay type: cell-based
// scale note: pIC50 = -log10(conc_M); give the bare number

Reference set (3 entries):
COMPOUND	pIC50
O=c1[nH]c(C2CNC2)nc2c1oc1ccc(Br)cc12	5.60
O=c1[nH]c([C@@H]2C[C@@H](F)CN2)nc2c1oc1ccc(Cl)cc12	6.78
O=c1[nH]c([C@H]2CCCN2)nc2c1oc1ccc(Br)cc12	5.34

I would be grateful if you could share the reported pIC50 for CN1CCC[C@H]1c1nc2c(oc3ccc(Br)cc32)c(=O)[nH]1 . 6.10

I would be grateful if you could share the reported pIC50 for CC(N)c1nc2c(oc3ccc(Br)cc32)c(=O)[nH]1 (racemic) . 6.06

I would be grateful if you could share the reported pIC50 for O=c1[nH]c(C2CCCNC2)nc2c1oc1ccc(Br)cc12 (racemic) . 5.63

I would be grateful if you could share the reported pIC50 for O=c1[nH]c([C@@H]2C[C@@H](O)CN2)nc2c1oc1ccc(Br)cc12 . 6.36

I would be grateful if you could share the reported pIC50 for O=c1[nH]c([C@@H]2CCCN2)nc2c1oc1ccc(Br)cc12 . 7.12

I would be grateful if you could share the reported pIC50 for COc1ccc2oc3c(=O)[nH]c([C@@H]4C[C@@H](F)CN4)nc3c2c1 . 6.53

I would be grateful if you could share the reported pIC50 for O=c1[nH]c([C@@H]2CCCN2)nc2c1oc1ccc(Cl)cc12 . 6.93

I would be grateful if you could share the reported pIC50 for CO[C@H]1CCN(Cc2nc3c(oc4ccc(Br)cc43)c(=O)[nH]2)C1 . 6.44

---

# TEST NAME: Clearance in rat
# Assay type: ADME, organism-based
# STATED CONDITIONS: in vivo
READOUT: clearance (mL/min/kg)
Expressed in mL/min/kg, but write only the number.

I would be grateful if you could share the reported clearance for O=c1[nH]c([C@@H]2CCCN2)nc2c1oc1ccc(Cl)cc12 . 1.95

---

# TESTED TARGET: Cell division cycle 7-related protein kinase (Homo sapiens, UniProt O00311)
# Sequence (O00311 whole entry): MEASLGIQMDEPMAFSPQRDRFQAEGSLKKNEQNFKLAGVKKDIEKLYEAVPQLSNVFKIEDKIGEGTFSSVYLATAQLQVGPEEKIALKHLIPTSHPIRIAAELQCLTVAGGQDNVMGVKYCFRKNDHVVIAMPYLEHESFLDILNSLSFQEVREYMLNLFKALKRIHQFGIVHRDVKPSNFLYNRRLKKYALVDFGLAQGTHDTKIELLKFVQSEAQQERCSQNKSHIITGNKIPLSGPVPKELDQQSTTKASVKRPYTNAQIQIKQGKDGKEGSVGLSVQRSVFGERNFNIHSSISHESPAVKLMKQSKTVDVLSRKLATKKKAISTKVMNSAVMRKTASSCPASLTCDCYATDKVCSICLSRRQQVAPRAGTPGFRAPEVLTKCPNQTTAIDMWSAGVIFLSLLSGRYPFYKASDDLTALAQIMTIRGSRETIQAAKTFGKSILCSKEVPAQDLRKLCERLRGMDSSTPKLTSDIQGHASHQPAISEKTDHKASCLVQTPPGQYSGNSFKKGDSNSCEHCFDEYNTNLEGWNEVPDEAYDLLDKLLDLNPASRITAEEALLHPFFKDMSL
# TEST NAME: Inhibition of CDC7 in human MDA-MB-231T cells assessed as inhibition of MCM2 phosphorylation at Ser53 after 4 hrs
# Assay type: cell-based
Each item that follows carries a reported IC50.
Expressed in nM, but write only the number.

Reference set (3 entries):
TEST SMILES	TESTED TARGET	READOUT	OBSERVED MEASUREMENT
O=c1[nH]c(C2CCNCC2)nc2c1oc1ccc(Br)cc12	Cell division cycle 7-related protein kinase (Homo sapiens, UniProt O00311)	IC50	1430
COc1ccc2oc3c(=O)[nH]c([C@@H]4CCCN4)nc3c2c1	Cell division cycle 7-related protein kinase (Homo sapiens, UniProt O00311)	IC50	1370
O=c1[nH]c([C@@H]2C[C@H](F)CN2)nc2c1oc1ccc(Br)cc12	Cell division cycle 7-related protein kinase (Homo sapiens, UniProt O00311)	IC50	566

Now turn to the next compound.
I would be grateful if you could share the reported IC50 for O=c1[nH]c([C@@H]2C[C@@H](F)CN2)nc2c1oc1ccc(Br)cc12 . 82
